So I've got a bunch of compounds here, and I need their relative viability values.
- Tested on: COR-L 105
- assayRemarks: relative viability (nuclei count vs DMSO), 5 days (fraction); higher = more cells survive
- experimentalParameters: first compound 0.5 µM

Below are worked cases with known answers.
CC1(C)CCC(c2ccc(Cl)cc2)=C(CN2CCN(c3ccc(C(=O)NS(=O)(=O)c4ccc(N[C@H](CCN5CCOCC5)CSc5ccccc5)c(S(=O)(=O)C(F)(F)F)c4)cc3)CC2)C1 [Navitoclax] + CCNC(=O)c1noc(-c2cc(C(C)C)c(O)cc2O)c1-c1ccc(CN2CCOCC2)cc1 [Luminespib] (partner 0.01 µM) | 0.544
CC1(C)CCC(c2ccc(Cl)cc2)=C(CN2CCN(c3ccc(C(=O)NS(=O)(=O)c4ccc(N[C@H](CCN5CCOCC5)CSc5ccccc5)c(S(=O)(=O)C(F)(F)F)c4)cc3)CC2)C1 [Navitoclax] + CS(=O)(=O)CCNCc1ccc(-c2ccc3ncnc(Nc4ccc(OCc5cccc(F)c5)c(Cl)c4)c3c2)o1 [Lapatinib] (partner 2 µM) | 0.333
CC1(C)CCC(c2ccc(Cl)cc2)=C(CN2CCN(c3ccc(C(=O)NS(=O)(=O)c4ccc(N[C@H](CCN5CCOCC5)CSc5ccccc5)c(S(=O)(=O)C(F)(F)F)c4)cc3)CC2)C1 [Navitoclax] + C[C@]1(O)C[C@@H](c2nc(-c3ccc4ccc(-c5ccccc5)nc4c3)c3c(N)nccn32)C1 [Linsitinib] (partner 1 µM) | 0.979

Below: the item to evaluate.
Exercise: Query (compound): CC1(C)CCC(c2ccc(Cl)cc2)=C(CN2CCN(c3ccc(C(=O)NS(=O)(=O)c4ccc(N[C@H](CCN5CCOCC5)CSc5ccccc5)c(S(=O)(=O)C(F)(F)F)c4)cc3)CC2)C1 [Navitoclax] + Nc1ncn([C@H]2C[C@H](O)[C@@H](CO)O2)c(=O)n1 [Decitabine] (partner 2 µM) ; field requested: relative viability
Key: 0.537

----------
So I've got a bunch of compounds here, and I need their relative viability values.
- Test system: SW 900
- assayRemarks: relative viability (nuclei count vs DMSO), 5 days (fraction); higher = more cells survive
- experimentalParameters: first compound 8 µM
Answers are plain numbers.

C=C1C(=O)O[C@@H](CCCCCCCC)[C@@H]1C(=O)O [C-75] + N=C(N)NC(=N)NCCc1ccccc1 [Phenformin] (partner 250 µM) | 0.495
C=C1C(=O)O[C@@H](CCCCCCCC)[C@@H]1C(=O)O [C-75] + Cc1nc(Nc2ncc(C(=O)Nc3c(C)cccc3Cl)s2)cc(N2CCN(CCO)CC2)n1 [Dasatinib] (partner 0.075 µM) | 0.449
C=C1C(=O)O[C@@H](CCCCCCCC)[C@@H]1C(=O)O [C-75] + CCNC(=O)c1noc(-c2cc(C(C)C)c(O)cc2O)c1-c1ccc(CN2CCOCC2)cc1 [Luminespib] (partner 0.01 µM) | 0.206
C=C1C(=O)O[C@@H](CCCCCCCC)[C@@H]1C(=O)O [C-75] + O=C(c1cc(Cc2n[nH]c(=O)c3ccccc23)ccc1F)N1CCN(C(=O)C2CC2)CC1 [Olaparib] (partner 8 µM) | 0.977

Exercise: Query (compound): C=C1C(=O)O[C@@H](CCCCCCCC)[C@@H]1C(=O)O [C-75] + O=C(CCCCCCC(=O)Nc1ccccc1)NO [Vorinostat] (partner 1 µM) ; field requested: relative viability
Key: 0.49

----------
- Tested on: SK-LU-1
- assayRemarks: relative viability (nuclei count vs DMSO), 5 days (fraction); higher = more cells survive
- experimentalParameters: first compound 8 µM
So I've got a bunch of molecules here, and I need their relative viability values.
Give bare numbers.

Below are worked cases with known answers.
C=C1C(=O)O[C@@H](CCCCCCCC)[C@@H]1C(=O)O [C-75] + C[C@@H](Oc1cc(-c2cnn(C3CCNCC3)c2)cnc1N)c1c(Cl)ccc(F)c1Cl [Crizotinib] (partner 1 µM) | 0.655
C=C1C(=O)O[C@@H](CCCCCCCC)[C@@H]1C(=O)O [C-75] + CC(=O)Nc1cccc(-n2c(=O)n(C3CC3)c(=O)c3c(Nc4ccc(I)cc4F)n(C)c(=O)c(C)c32)c1 [Trametinib] (partner 0.02 µM) | 0.468

Below: the item to evaluate.
Exercise: Query (molecule): C=C1C(=O)O[C@@H](CCCCCCCC)[C@@H]1C(=O)O [C-75] + Cc1nc(NC(=O)N2CCC[C@H]2C(N)=O)sc1-c1ccnc(C(C)(C)C(F)(F)F)c1 [Alpelisib] (partner 2 µM) ; field requested: relative viability
Key: 0.552

----------
- Test system: LC-2-ad
- assayRemarks: relative viability (nuclei count vs DMSO), 5 days (fraction); higher = more cells survive
- experimentalParameters: first compound 0.04 µM
valueKind: relative viability
Give bare numbers.

Would you mind giving relative viability for every compound in the list below?
1. O=C(O)c1ccc(-c2c[nH]c3ncc(-c4ccccc4)cc23)cc1C1CCCC1 + Nc1nc2[nH]cc(CCc3ccc(C(=O)N[C@@H](CCC(=O)O)C(=O)O)cc3)c2c(=O)[nH]1 [Pemetrexed] (partner 0.2 µM)
2. O=C(O)c1ccc(-c2c[nH]c3ncc(-c4ccccc4)cc23)cc1C1CCCC1 + C[C@]1(O)C[C@@H](c2nc(-c3ccc4ccc(-c5ccccc5)nc4c3)c3c(N)nccn32)C1 [Linsitinib] (partner 1 µM)
3. O=C(O)c1ccc(-c2c[nH]c3ncc(-c4ccccc4)cc23)cc1C1CCCC1 + CS(=O)(=O)CCNCc1ccc(-c2ccc3ncnc(Nc4ccc(OCc5cccc(F)c5)c(Cl)c4)c3c2)o1 [Lapatinib] (partner 2 µM)

Key:
1: 0.302; 2: 0.81; 3: 1

----------
- Tested on: NCI-H2228
- assayRemarks: relative viability (nuclei count vs DMSO), 5 days (fraction); higher = more cells survive
- experimentalParameters: first compound 0.5 µM
Rule: relative viability below 0.6 gives True. Equal to or above 0.6 gives False.

CC1(C)CCC(c2ccc(Cl)cc2)=C(CN2CCN(c3ccc(C(=O)NS(=O)(=O)c4ccc(N[C@H](CCN5CCOCC5)CSc5ccccc5)c(S(=O)(=O)C(F)(F)F)c4)cc3)CC2)C1 [Navitoclax] + Cc1nc(NC(=O)N2CCC[C@H]2C(N)=O)sc1-c1ccnc(C(C)(C)C(F)(F)F)c1 [Alpelisib] (partner 2 µM) | False
CC1(C)CCC(c2ccc(Cl)cc2)=C(CN2CCN(c3ccc(C(=O)NS(=O)(=O)c4ccc(N[C@H](CCN5CCOCC5)CSc5ccccc5)c(S(=O)(=O)C(F)(F)F)c4)cc3)CC2)C1 [Navitoclax] + CC(C)C[C@H](NC(=O)[C@H](Cc1ccccc1)NC(=O)c1cnccn1)B(O)O [Bortezomib] (partner 0.002 µM) | False
CC1(C)CCC(c2ccc(Cl)cc2)=C(CN2CCN(c3ccc(C(=O)NS(=O)(=O)c4ccc(N[C@H](CCN5CCOCC5)CSc5ccccc5)c(S(=O)(=O)C(F)(F)F)c4)cc3)CC2)C1 [Navitoclax] + CCNC(=O)c1noc(-c2cc(C(C)C)c(O)cc2O)c1-c1ccc(CN2CCOCC2)cc1 [Luminespib] (partner 0.01 µM) | True
CC1(C)CCC(c2ccc(Cl)cc2)=C(CN2CCN(c3ccc(C(=O)NS(=O)(=O)c4ccc(N[C@H](CCN5CCOCC5)CSc5ccccc5)c(S(=O)(=O)C(F)(F)F)c4)cc3)CC2)C1 [Navitoclax] + N=C(N)NC(=N)NCCc1ccccc1 [Phenformin] (partner 250 µM) | True
CC1(C)CCC(c2ccc(Cl)cc2)=C(CN2CCN(c3ccc(C(=O)NS(=O)(=O)c4ccc(N[C@H](CCN5CCOCC5)CSc5ccccc5)c(S(=O)(=O)C(F)(F)F)c4)cc3)CC2)C1 [Navitoclax] + C[C@]1(O)C[C@@H](c2nc(-c3ccc4ccc(-c5ccccc5)nc4c3)c3c(N)nccn32)C1 [Linsitinib] (partner 1 µM) | False
CC1(C)CCC(c2ccc(Cl)cc2)=C(CN2CCN(c3ccc(C(=O)NS(=O)(=O)c4ccc(N[C@H](CCN5CCOCC5)CSc5ccccc5)c(S(=O)(=O)C(F)(F)F)c4)cc3)CC2)C1 [Navitoclax] + Nc1nc2[nH]cc(CCc3ccc(C(=O)N[C@@H](CCC(=O)O)C(=O)O)cc3)c2c(=O)[nH]1 [Pemetrexed] (partner 0.2 µM) | True

// next entry
Exercise: Is relative viability strictly under 0.6 for the entry CC1(C)CCC(c2ccc(Cl)cc2)=C(CN2CCN(c3ccc(C(=O)NS(=O)(=O)c4ccc(N[C@H](CCN5CCOCC5)CSc5ccccc5)c(S(=O)(=O)C(F)(F)F)c4)cc3)CC2)C1 [Navitoclax] + CC(=O)c1c(C)c2cnc(Nc3ccc(N4CCNCC4)cn3)nc2n(C2CCCC2)c1=O [Palbociclib] (partner 0.5 µM) ?
Key: False

----------
So I've got a bunch of compounds here, and I need their relative viability values.
- Tested on: 201T
- assayRemarks: relative viability (nuclei count vs DMSO), 5 days (fraction); higher = more cells survive
- experimentalParameters: first compound 0.08 µM
Answers are plain numbers.

C=C1C(=O)O[C@@H](CCCCCCCC)[C@@H]1C(=O)O [C-75] + N=C(N)NC(=N)NCCc1ccccc1 [Phenformin] (partner 250 µM) | 0.42
Oc1nc(-c2ccc(C(F)(F)F)cc2)nc2c1CSCC2 [XAV939] + CC(C)C[C@H](NC(=O)[C@H](Cc1ccccc1)NC(=O)c1cnccn1)B(O)O [Bortezomib] (partner 0.002 µM) | 1.12

Below: the item to evaluate.
Exercise: Query (compound): C=C1C(=O)O[C@@H](CCCCCCCC)[C@@H]1C(=O)O [C-75] + CS(=O)(=O)CCNCc1ccc(-c2ccc3ncnc(Nc4ccc(OCc5cccc(F)c5)c(Cl)c4)c3c2)o1 [Lapatinib] (partner 2 µM) ; field requested: relative viability
Key: 1
